- Tested system: luminal portion of LAMP1 (Homo sapiens)
- Sequence (P11279 29-382 limits assumed): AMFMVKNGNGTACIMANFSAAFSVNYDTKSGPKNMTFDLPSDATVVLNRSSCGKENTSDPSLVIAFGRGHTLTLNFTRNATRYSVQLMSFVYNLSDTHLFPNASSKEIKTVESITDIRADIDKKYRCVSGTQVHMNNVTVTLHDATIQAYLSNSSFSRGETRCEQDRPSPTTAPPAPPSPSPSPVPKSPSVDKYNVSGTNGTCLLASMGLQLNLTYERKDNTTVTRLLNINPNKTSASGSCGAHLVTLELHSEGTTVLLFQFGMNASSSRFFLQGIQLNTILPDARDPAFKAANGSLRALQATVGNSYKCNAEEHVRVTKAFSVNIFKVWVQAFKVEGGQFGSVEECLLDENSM
Measurement name: pKd
// pKd: -log10(molar conc.)

Which pKd is listed for "COCCN(Cc1sccc1C)C(=O)c1cc(C)nc(O)c1" ?
2.20

Each recorded value in this set is attributed to patent US20240139167A1.
